EXPERIMENTAL_DETAILS: In vivo pharmacokinetics in mice
RUN_CONDITIONS: mouse; intravenous administration 2 mg/kg, female CD-1 mice, plasma; read-out: Initial concentration C0
TEST_READOUT: C0 (nM)
One number for each entry, in nM.

Sample Cc1ccc(NC(=O)c2ccnc(C(F)(F)F)c2)cc1-c1cc(OCCO)nc([C@]23COC[C@H]2C3)c1 [Compound 16B] ; C0 observed: 2010

* * *

EXPERIMENTAL_DETAILS: In vivo pharmacokinetics in mice
RUN_CONDITIONS: mouse; intravenous administration 2 mg/kg, female CD-1 mice, plasma; read-out: Curve area AUC
TEST_READOUT: AUC (µM·h)
Numbers only, in µM·h.

Sample Cc1ccc(NC(=O)c2ccnc(C(F)(F)F)c2)cc1-c1cc(OCCO)nc([C@]23COC[C@H]2C3)c1 [Compound 16B] ; AUC observed: 2.61

Hey, just so you know, these numbers are from patent US20230046018A1.
